Test system: COLO 205 colon
assay-details: NCI tumour cell line growth inhibition, 48 h
Assign met to entries whose TGI meets or exceeds 20 µM; assign not met to the rest.

Q. Say whether COC1=CC(=O)C(Br)=CC1=O shows TGI of 20 µM or more.
A. met

Q. Say whether CC(=O)NNc1nc(C)c(C(/C=C/c2ccc([N+](=O)[O-])cc2)=N/NC(N)=O)s1 shows TGI of 20 µM or more.
A. met

Q. Say whether COC(=O)c1ccccc1NC(=S)NN(C)C shows TGI of 20 µM or more.
A. met

Q. Say whether CCCCCCCCCCCC[N+](C)(C)Cc1ccccc1 shows TGI of 20 µM or more.
A. not met

Q. Say whether O=C(CNc1nccs1)Nn1cnc2ccc(S(=O)(=O)Nc3nccs3)cc2c1=O shows TGI of 20 µM or more.
A. met

Q. Say whether CC(CN1CC(=O)NC(=O)C1)N1CC(=O)NC(=O)C1 (centres undefined) shows TGI of 20 µM or more.
A. met

Q. Say whether O=C1OCC(c2ccc(O)cc2)=C1c1cc(O)c(O)c(O)c1 shows TGI of 20 µM or more.
A. met

Q. Say whether O=C(N/C(=C\c1c(O)ccc2ccccc12)c1nc2ccccc2[nH]1)c1ccccc1 shows TGI of 20 µM or more.
A. met

Q. Say whether CCNc1cc2oc(=O)cc(C(F)(F)F)c2cc1C shows TGI of 20 µM or more.
A. met

Q. Say whether COc1cc(O)c(C(=O)CC(C)=O)c(OC)c1 shows TGI of 20 µM or more.
A. met

Q. Say whether CC(CN(C)C)S(=O)(=O)c1ccc(-c2cnc(N)c(C(=O)Nc3ccccc3)n2)cc1 (centres undefined) shows TGI of 20 µM or more.
A. not met

Q. Say whether c1ccc2cc(Cn3cc[n+](Cc4ccc5ccccc5c4)c3)ccc2c1 shows TGI of 20 µM or more.
A. not met

Q. Say whether O=C1/C(=C/c2ccc(F)c(F)c2)CN(C(=O)C(Cl)Cl)C/C1=C\c1ccc(F)c(F)c1 shows TGI of 20 µM or more.
A. not met

Q. Say whether CC(C)NCC(O)c1ccc(O)c2ncccc12 (centres undefined) shows TGI of 20 µM or more.
A. met

Q. Say whether COc1ccc(-c2nsc3c2NC(=O)CC3c2ccc3c(c2)OCCO3)cc1 (centres undefined) shows TGI of 20 µM or more.
A. not met

Q. Say whether O=C(O)C(Br)C(Br)C(=O)O (centres undefined) shows TGI of 20 µM or more.
A. met

Q. Say whether COc1ccc2c3c(c(C(=O)O)oc13)CCC2 shows TGI of 20 µM or more.
A. met

Q. Say whether Cc1ccc2[nH]c3c(c2c1)N=c1ccccc1=NO3 shows TGI of 20 µM or more.
A. met

Q. Say whether c1cc(CN2CCCNCCNCCCNCC2)ccc1CN1CCCNCCNCCCNCC1 shows TGI of 20 µM or more.
A. met

Q. Say whether CCCN(CCC)CCc1cc(C(C)=O)n(S(=O)(=O)c2ccc(C)cc2)c1 shows TGI of 20 µM or more.
A. met

Q. Say whether CCCc1n[nH]c(=O)n1N1C(=O)C=CC1=O shows TGI of 20 µM or more.
A. met

Q. Say whether CCOP(=O)(OCC)/C(C#N)=C\c1ccsc1 shows TGI of 20 µM or more.
A. met

Q. Say whether CCCCCCCCCC(O)CC(=O)c1c(O)cccc1O (centres undefined) shows TGI of 20 µM or more.
A. met

Q. Say whether COc1cc(OCc2nc3cc(C(F)(F)F)ccc3nc2-c2ccccc2)cc(OC)c1OC shows TGI of 20 µM or more.
A. met

Q. Say whether C/C(=N/NC(=S)Nc1cccc(Cl)c1)c1ccccn1 shows TGI of 20 µM or more.
A. not met

Q. Say whether CC(C)(CN1CCOCC1)C(=O)/C=C/c1ccc(/C=C/C(=O)C(C)(C)CN2CCOCC2)cc1 shows TGI of 20 µM or more.
A. not met

Q. Say whether O=C1OC(c2ccccc2)(c2ccccc2)c2ccc3ccc(F)cc3c21 shows TGI of 20 µM or more.
A. met

Q. Say whether Nc1nc2c(c(-c3ccccc3Cl)n1)COC/C2=C\c1ccccc1Cl shows TGI of 20 µM or more.
A. met

Q. Say whether CC(=O)O[C@@]12CO[C@@H]1C[C@H](O)[C@@]1(C)C(=O)[C@H](O)C3=C(C)[C@@H](OC(=O)[C@H](O)[C@@H](NC(=O)OC(C)(C)C)c4ccccc4)C[C@@](O)([C@@H](OC(=O)c4ccccc4)C12)C3(C)C (some centres undefined) shows TGI of 20 µM or more.
A. not met

Q. Say whether CCN1C(=O)N(CC)C2C1NN=c1s/c(=C\c3cccs3)c(=O)n12 (centres undefined) shows TGI of 20 µM or more.
A. met

Q. Say whether CN(C)CCNC(=O)c1cccc2nc3ccc4cccnc4c3nc12 shows TGI of 20 µM or more.
A. not met

Q. Say whether O=C(NC12CC3CC(CC(C3)C1)C2)C(=O)c1c[nH]c2ccc(Br)cc12 shows TGI of 20 µM or more.
A. met

Q. Say whether COc1cccc(OC(=O)c2ccc(C(F)(F)F)nc2Nc2c(C)cccc2Cl)c1 shows TGI of 20 µM or more.
A. met

Q. Say whether CCN(CC)CCC(=O)OC1C(C)=CC(C)C(=O)CC(C(C)CC2CCC(O)C(OC)C2)OC(=O)C2CCCCN2C(=O)C(=O)[C@@]2(O)OC(CCC2C)CC(OC)\C(C)=C/C=C/C=C/C(C)CC(C)C(=O)C1OC (some centres undefined) shows TGI of 20 µM or more.
A. met

====

System: UO-31 renal
assay-details: NCI tumour cell line growth inhibition, 48 h
Could you please report measured GI50 for the items listed next?

Q. Quote UO-31 renal GI50 for entry Cn1cc(-c2nc(-c3c[nH]c4ccncc34)cs2)c2ccccc21 .
A. 1.38 µM

Q. Quote UO-31 renal GI50 for entry CCC#CC[C@H](O)C/C=C1/C(=O)C=C[C@@H]1C/C=C\CCCC(=O)OC .
A. 0.864 µM

Q. Quote UO-31 renal GI50 for entry COc1cccc(-n2ncc3c(N/N=C/c4ccc(C)cc4)ncnc32)c1 .
A. > 25 µM

Q. Quote UO-31 renal GI50 for entry O=P(O)(O)OCC1OC(n2cnc3c(NCc4ccco4)ncnc32)C(O)C1O (stereo unspecified) .
A. 0.993 µM

Q. Quote UO-31 renal GI50 for entry COc1cccc(Sc2ccc([N+](=O)[O-])c3no[n+]([O-])c23)c1 .
A. 2.27 µM

Q. Quote UO-31 renal GI50 for entry CC(CN(C)C)S(=O)(=O)c1ccc(-c2cnc(N)c(C(=O)Nc3ccccc3)n2)cc1 (stereo unspecified) .
A. 4.78 µM

====

Could you please report measured GI50 for the items listed next?
Test system: RPMI-8226 leukemia
assay-details: NCI tumour cell line growth inhibition, 48 h

Q. Provide only the value of recorded GI50 for c1ccc2cc(Cn3cc[n+](Cc4ccc5ccccc5c4)c3)ccc2c1
A. 0.348 µM

Q. Provide only the value of recorded GI50 for CC(CN(C)C)S(=O)(=O)c1ccc(-c2cnc(N)c(C(=O)Nc3ccccc3)n2)cc1 (stereo not given)
A. 13.8 µM

Q. Provide only the value of recorded GI50 for COc1cccc(Sc2ccc([N+](=O)[O-])c3no[n+]([O-])c23)c1
A. 3.67 µM

Q. Provide only the value of recorded GI50 for COc1ccc(OC)c(NC(=O)c2cccc(NC3=C(Cl)C(=O)N(Cc4ccccc4)C3=O)c2)c1
A. 15.9 µM

Q. Provide only the value of recorded GI50 for C=CCNc1nc(O)c(/C=C2\C=Nc3ncccc32)s1
A. 2.26 µM

====

Could you please report measured TGI for the items listed next?
Test system: IGROV1 ovarian
assay-details: NCI tumour cell line growth inhibition, 48 h
Numeric only. Scale: µM

Q. Provide only the value of recorded TGI for CC(CN(C)C)S(=O)(=O)c1ccc(-c2cnc(N)c(C(=O)Nc3ccccc3)n2)cc1 (centres undefined)
A. 36

Q. Provide only the value of recorded TGI for COc1cc(OC)c(/C=C/C(=O)c2ccc(Nc3ncnc4ccccc34)cc2)c(OC)c1
A. 20.3

Q. Provide only the value of recorded TGI for Nc1nc(Nc2ccc(Cl)cc2)sc1C(=O)c1c[nH]c2ccccc12
A. 37.1

Q. Provide only the value of recorded TGI for Oc1cc(O)c2c(c1)O[C@H](c1cc(O)c(O)c(O)c1)[C@@H](O)C2
A. 38.9

Q. Provide only the value of recorded TGI for CCCCCCCCCC(O)CC(=O)c1c(O)cccc1O (centres undefined)
A. 36.8

Q. Provide only the value of recorded TGI for COC1=CC(=O)C(Br)=CC1=O
A. 31.1

Q. Provide only the value of recorded TGI for CC/C=C\C[C@H](O)C/C=C1/C(=O)C=C[C@@H]1C/C=C\CCCC(=O)OC(C)C
A. 7.75

Q. Provide only the value of recorded TGI for O=C(Nc1ccc2ncnc(Nc3ccc(Oc4cccc(F)c4)c(Cl)c3)c2c1)c1ccc(CN2CCOCC2)cc1
A. 5.5

Q. Provide only the value of recorded TGI for CCCCCCCCCCCCCCCCNCC(O)CN (centres undefined)
A. 18.9
